# tested on: SCD (stearoyl-CoA desaturase) (Rattus norvegicus, UniProt P07308)
# Construct: The rat liver microsomes were collected according to the procedure described in Ozols (1990) Methods Enzm, 182:225
# Sequence (P07308 whole entry): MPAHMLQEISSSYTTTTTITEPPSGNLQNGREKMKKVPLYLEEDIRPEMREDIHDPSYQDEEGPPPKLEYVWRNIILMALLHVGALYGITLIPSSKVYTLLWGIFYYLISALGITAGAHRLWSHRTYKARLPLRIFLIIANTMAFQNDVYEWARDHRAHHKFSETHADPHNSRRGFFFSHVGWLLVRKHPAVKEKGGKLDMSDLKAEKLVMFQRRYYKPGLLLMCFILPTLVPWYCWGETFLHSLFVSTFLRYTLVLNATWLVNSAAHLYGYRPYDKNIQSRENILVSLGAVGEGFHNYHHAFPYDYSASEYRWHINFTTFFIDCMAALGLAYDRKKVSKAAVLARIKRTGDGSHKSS
# experiment summary: SCD assay with rat liver microsomes, [3H]stearoyl CoA (adapted from Talamo and Bloch)
# run parameters: rat liver microsomes 0.2 mg/ml final, 30 min preincubation, 45 min reaction at room temperature
Listing: pIC50 of selected compounds
When answering, recall that pIC50 equals minus log10 of the concentration in mol/L, and write that number alone.

Reference set, count: 3
[
  {
    "smiles": "O=C(Nc1ccc2c(=O)[nH]c(Cc3ccc(Cl)c(Cl)c3)nc2c1)OCc1ccccc1",
    "pIC50": 5.60
  },
  {
    "smiles": "O=C(Nc1ccc2nc(Cc3ccc(Cl)c(Cl)c3)[nH]c(=O)c2c1)OCc1ccccc1",
    "pIC50": 5.92
  },
  {
    "smiles": "O=C(CO)Nc1ccc2nc(Cc3ccc(Cl)c(Cl)c3)[nH]c(=O)c2c1",
    "pIC50": 6.03
  }
]

Let us examine a further case.
Which pIC50 value belongs to CC(=O)OCC(=O)Nc1ccc2nc(Cc3ccc(Cl)c(Cl)c3)[nH]c(=O)c2c1 ?
6.12
